Biological target: human ether-à-go-go-related gene (hERG) potassium channel (human, UniProt Q12809);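 also: peak tail current of the secondary pulse compared with the same well before compound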
Sequence (Q12809 whole entry, looked up): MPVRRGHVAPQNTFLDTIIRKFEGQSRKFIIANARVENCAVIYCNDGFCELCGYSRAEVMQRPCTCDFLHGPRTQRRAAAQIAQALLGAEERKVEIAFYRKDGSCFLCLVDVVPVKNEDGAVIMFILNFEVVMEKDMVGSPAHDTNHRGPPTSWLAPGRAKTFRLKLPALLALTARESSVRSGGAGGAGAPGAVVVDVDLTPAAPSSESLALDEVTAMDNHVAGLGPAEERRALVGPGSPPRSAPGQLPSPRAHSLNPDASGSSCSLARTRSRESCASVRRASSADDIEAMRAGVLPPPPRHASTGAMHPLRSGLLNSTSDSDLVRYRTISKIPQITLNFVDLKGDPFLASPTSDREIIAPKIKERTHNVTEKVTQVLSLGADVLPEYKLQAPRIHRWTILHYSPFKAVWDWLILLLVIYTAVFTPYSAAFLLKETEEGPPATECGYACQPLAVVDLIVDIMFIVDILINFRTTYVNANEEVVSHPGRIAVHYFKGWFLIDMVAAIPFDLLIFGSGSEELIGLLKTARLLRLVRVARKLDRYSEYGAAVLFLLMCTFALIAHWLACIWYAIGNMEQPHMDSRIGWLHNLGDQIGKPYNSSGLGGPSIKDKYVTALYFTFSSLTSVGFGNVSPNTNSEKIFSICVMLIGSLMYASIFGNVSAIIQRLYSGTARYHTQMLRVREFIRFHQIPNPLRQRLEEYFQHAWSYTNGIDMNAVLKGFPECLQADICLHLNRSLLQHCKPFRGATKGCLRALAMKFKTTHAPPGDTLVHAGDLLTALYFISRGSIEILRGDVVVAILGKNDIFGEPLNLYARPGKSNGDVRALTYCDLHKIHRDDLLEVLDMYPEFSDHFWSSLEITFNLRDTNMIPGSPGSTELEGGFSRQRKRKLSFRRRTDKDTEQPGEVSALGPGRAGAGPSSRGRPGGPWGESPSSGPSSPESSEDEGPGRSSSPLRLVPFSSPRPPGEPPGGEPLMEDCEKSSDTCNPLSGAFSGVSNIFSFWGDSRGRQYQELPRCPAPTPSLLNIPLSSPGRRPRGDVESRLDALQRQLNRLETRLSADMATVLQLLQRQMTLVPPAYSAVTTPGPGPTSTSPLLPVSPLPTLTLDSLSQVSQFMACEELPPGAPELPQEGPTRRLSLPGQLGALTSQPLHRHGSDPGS
Assay: primary screen, population patch clamp on CHO cells stably expressing hERG; higher = less effect of the substance
Screen size: about 310,000 compounds; about 14,000 (4.5%) showed an effect of 50% or more. Effects have a minus sign here. Many of the other results were omitted from the sample, so strong results are more common in it than they were.
attribute_measured: hERG current change (%, negative = inhibition) at 10uM (%)
Answers are plain numbers, in %.

Below, each entry is followed by its recorded hERG current change (%, negative = inhibition) at 10uM result.
compound	unit_text	readout_number
Cc1ccc2cc3cc(C(=O)NCCCN4CC(C)CC(C)C4)oc3nc2c1 (stereo not drawn)	%	-62.9
Cc1c(C)c2ccc(OC(C)C(=O)N3CC[C@@]4(O)CCCC[C@H]4C3)cc2oc1=O (stereo partly drawn)	%	-11.2
OCC1(Cc2ccccc2)CCN(Cc2ccc(C(F)(F)F)cc2)CC1	%	-72.9
CC(Sc1ccccc1)C(=O)Nc1ccc(N2CCOCC2)cc1 (stereo not drawn)	%	-7.09
CCC1CCCCN1c1cc(C)nc2cc(-c3cccc(C)c3)nn12 (stereo not drawn)	%	-1.65
OCC1(Cc2ccccc2)CCCN(Cc2ccc(-c3ccco3)cc2)C1 (stereo not drawn)	%	-5.88
Cc1cc(N2C(=O)c3ccccc3C2=O)n(C)n1	%	9.7
CC(C)(O)CCc1c(-c2ccc(O)cc2O)oc2c3c(cc(O)c2c1=O)OC(C)(C)C=C3	%	13.7
Cc1onc(-c2ccccc2)c1NC(=O)N(CCC#N)Cc1ccccc1	%	3.65
COc1ccc(OCC(=O)Nc2ccc3c(c2)nc(CCN2CCCC2)n3C)cc1	%	-55

For every listed record, write down its hERG current change (%, negative = inhibition) at 10uM.
1. OCCC1CN(Cc2ccc3nonc3c2)CCN1Cc1ccsc1 (stereo not drawn)
2. Cc1ccc(NC(=O)CNC(=O)c2ccco2)nc1

Data returned:
1: -66.1; 2: 17.3

Cited source: paper PMC4336329
